# assayed system: T1, Mdm4 (1-125) (human, UniProt O15151 1-125)
# T1 construct: range 1-125; also called MDMX; Hdm4
# T1 sequence (looked up): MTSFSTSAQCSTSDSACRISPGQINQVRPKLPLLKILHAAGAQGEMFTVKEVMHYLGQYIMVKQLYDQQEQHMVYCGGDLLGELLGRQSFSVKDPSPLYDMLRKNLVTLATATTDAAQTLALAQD
# experiment summary: direct fluorescence anisotropy titration of Mdm4 (1-125) against 50 nM labelled peptide, 1:1 model
FAM = carboxyfluorescein
reported endpoint: Kd (nM)

binder	u	measured result
{FAM}-RFMDYWEGL-NH2 (Labelled probe of the fluorescence anisotropy assays; also called FAM labeled probe) [carboxyfluorescein (FAM) labelled 12-1 peptide (FAM-RFMDYWEGL-NH2)]	nM	4.2
